- ASSAY NAME: logP determination by retention times (calibration with alkan-2-ones)
MEASURED METRIC: chromatographic logP
The reply should be a number, written without any unit.

Example cases with answers are listed next.
RECORD SMILES	chromatographic logP
CCc1nc(C)c(-c2ccnc(Nc3ccc(OC)nc3)n2)s1	2.33
Cc1nc(C)c(-c2ccnc(Nc3cccc(C(F)(F)F)c3)n2)s1	3.3
COc1cccc(Nc2nccc(-c3sc(C4CC4)nc3C)n2)c1	3.28
COCc1nc(C)c(-c2ccnc(Nc3cc(OC)c(OC)c(OC)c3)n2)s1	2.36
Cc1nc(N)sc1-c1ccnc(Nc2ccccc2)n1	1.51
CC(=O)c1cccc(Nc2nccc(-c3cnc(C)s3)n2)c1	2.57
CCOC(=O)c1cccc(Nc2nccc(-c3sc(C(C)C)nc3C)n2)c1	3.83
COc1cc(Nc2nccc(-c3sc(C)nc3C)n2)cc(OC)c1OC	2.1

Query: Dear colleague, please send me the reported chromatographic logP for Cc1nc(C)c(-c2ccnc(Nc3ccc4c(c3)OCCO4)n2)s1 when you can.
Reply: 2.34
